- System: Saccharomyces cerevisiae
- Protocol: protein stability index of tFT-peptide fusion (C-terminal peptide) (PSI (0-1 scale)); higher = more stable (slower turnover)
- Recorded Conditions: genetic background: wild type; temperature: 30 C
Kindly state protein stability index for each of the entries shown.
Would you mind answering with just the numeric figure?

// query Check Saccharomyces cerevisiae data and give protein stability index for TSSQYEGVALGM [EAF3 C-terminal 12 aa] .
// result 0.669

// query Check Saccharomyces cerevisiae data and give protein stability index for HIRKERTLYIYI [PIH1 C-terminal 12 aa] .
// result 0.351

// query Check Saccharomyces cerevisiae data and give protein stability index for QYQHQHQQDPRT [NAF1 C-terminal 12 aa] .
// result 0.728

// query Check Saccharomyces cerevisiae data and give protein stability index for YVIVFFVYDSLL [YOL046C C-terminal 12 aa] .
// result 0.283

// query Check Saccharomyces cerevisiae data and give protein stability index for RDAEILAKIAKD [HSP10 C-terminal 12 aa] .
// result 0.677

// query Check Saccharomyces cerevisiae data and give protein stability index for WTALVVNILGRF [CWH41 C-terminal 12 aa] .
// result 0.634

// query Check Saccharomyces cerevisiae data and give protein stability index for NKPKGPLRKRRT [TWF1 C-terminal 12 aa] .
// result 0.672

// query Check Saccharomyces cerevisiae data and give protein stability index for ALPLPDEDDADL [GSP1 C-terminal 12 aa] .
// result 0.715

// query Check Saccharomyces cerevisiae data and give protein stability index for HLGKFFVKQKIL [ERP1 C-terminal 12 aa] .
// result 0.152

// query Check Saccharomyces cerevisiae data and give protein stability index for AYRTYDISLTEN [DRN1 C-terminal 12 aa] .
// result 0.656

// query Check Saccharomyces cerevisiae data and give protein stability index for CLSIIGFLKTKV [YOR015W C-terminal 12 aa] .
// result 0.622

// query Check Saccharomyces cerevisiae data and give protein stability index for KVTFINIEINYR [YGR064W C-terminal 12 aa] .
// result 0.591

// query Check Saccharomyces cerevisiae data and give protein stability index for FATFELAMRLLG [YMC1 C-terminal 12 aa] .
// result 0.194

// query Check Saccharomyces cerevisiae data and give protein stability index for NPNSLPLQPIAN [MSC2 C-terminal 12 aa] .
// result 0.691

// query Check Saccharomyces cerevisiae data and give protein stability index for CDEVVEHVKASA [PCM1 C-terminal 12 aa] .
// result 0.687

// query Check Saccharomyces cerevisiae data and give protein stability index for LSSKKQTVMDKE [POL5 C-terminal 12 aa] .
// result 0.749

// query Check Saccharomyces cerevisiae data and give protein stability index for DFIRGVAVFMHI [YMR272W-A C-terminal 12 aa] .
// result 0.666

// query Check Saccharomyces cerevisiae data and give protein stability index for SWINLDFNDGDE [MDM12 C-terminal 12 aa] .
// result 0.675

// query Check Saccharomyces cerevisiae data and give protein stability index for TTHGLKQKLQHA [RTN2 C-terminal 12 aa] .
// result 0.698

// query Check Saccharomyces cerevisiae data and give protein stability index for IEVGNGASVLIQ [TRS65 C-terminal 12 aa] .
// result 0.691

// query Check Saccharomyces cerevisiae data and give protein stability index for LIGGVGLSIWKK [RTT10 C-terminal 12 aa] .
// result 0.668

// query Check Saccharomyces cerevisiae data and give protein stability index for ICYTFKHLVSHK [FRT2 C-terminal 12 aa] .
// result 0.657

// query Check Saccharomyces cerevisiae data and give protein stability index for SAIEEGISLNKG [TEL2 C-terminal 12 aa] .
// result 0.701

// query Check Saccharomyces cerevisiae data and give protein stability index for ENISSPLGKKSR [PSY4 C-terminal 12 aa] .
// result 0.706

// query Check Saccharomyces cerevisiae data and give protein stability index for HVCVDVDVIVST [TRM12 C-terminal 12 aa] .
// result 0.657

// query Check Saccharomyces cerevisiae data and give protein stability index for TFGKCILDGFKA [SCM4 C-terminal 12 aa] .
// result 0.687

// query Check Saccharomyces cerevisiae data and give protein stability index for ADESKKEITTGR [MPC2 C-terminal 12 aa] .
// result 0.653

// query Check Saccharomyces cerevisiae data and give protein stability index for THENIHQKFVQF [SFB3 C-terminal 12 aa] .
// result 0.636
